- target_of_assay: T1, Human CD19-his protein (human, UniProt P15391 20-291)
- T1 construct: bought protein; also called human CD19 protein; recombinant human CD19-His; not shown: His tag
- T1 sequence (looked up): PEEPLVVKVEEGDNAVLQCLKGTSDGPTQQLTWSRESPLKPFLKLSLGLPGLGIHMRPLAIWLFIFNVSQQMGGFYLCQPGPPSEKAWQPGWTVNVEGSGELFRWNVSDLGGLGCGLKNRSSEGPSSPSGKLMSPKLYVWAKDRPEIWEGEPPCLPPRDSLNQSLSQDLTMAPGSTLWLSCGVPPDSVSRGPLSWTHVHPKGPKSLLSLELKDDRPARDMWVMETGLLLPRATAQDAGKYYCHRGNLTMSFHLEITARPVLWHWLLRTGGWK
- assay_procedure: ELISA, antibody at 0.0001 nM
measured_property: OD450
Please give the numeric answer without any surrounding text.

Please review the entries below; each comes with its answer.
F4.82.11 (antibody, human IgG1, V domains shown, human-murine chimeric antibody, human IgG1) VH: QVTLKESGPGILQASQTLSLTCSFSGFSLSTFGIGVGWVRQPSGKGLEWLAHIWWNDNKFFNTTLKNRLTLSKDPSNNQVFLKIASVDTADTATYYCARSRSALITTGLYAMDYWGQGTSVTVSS VL: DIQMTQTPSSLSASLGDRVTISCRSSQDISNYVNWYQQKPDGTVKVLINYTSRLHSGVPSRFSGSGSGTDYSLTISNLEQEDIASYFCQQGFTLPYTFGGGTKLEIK    0.09
F4.180.1 (antibody, human IgG1, V domains shown, human-murine chimeric antibody, human IgG1) VH: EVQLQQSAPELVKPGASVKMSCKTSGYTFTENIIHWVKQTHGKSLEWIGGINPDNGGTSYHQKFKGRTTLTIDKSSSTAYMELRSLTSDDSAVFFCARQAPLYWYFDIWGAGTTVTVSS VL: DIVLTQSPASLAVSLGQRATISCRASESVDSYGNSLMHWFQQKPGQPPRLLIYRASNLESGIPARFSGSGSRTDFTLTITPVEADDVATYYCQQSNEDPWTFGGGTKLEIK    0.05

Lookup: Sample F4.272.13 (antibody, human IgG1, V domains shown, human-murine chimeric antibody, human IgG1) VH: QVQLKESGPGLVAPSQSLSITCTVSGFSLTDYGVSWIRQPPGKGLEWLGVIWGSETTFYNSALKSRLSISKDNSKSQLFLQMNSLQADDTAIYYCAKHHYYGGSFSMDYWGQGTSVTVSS VL: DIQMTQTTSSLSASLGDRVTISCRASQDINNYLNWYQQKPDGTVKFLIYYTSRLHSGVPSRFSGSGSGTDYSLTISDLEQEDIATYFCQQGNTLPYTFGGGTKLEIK — what was its OD450?
Found: 0.06
